- RUN DESCRIPTION: CREB reporter modulators under forskolin, primary screen, cell-based, PC12, CRE-LacZ reporter, forskolin-stimulated (AID 1146);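 note: PC12 cells with 6xCRE LacZ reporter stimulated by forskolin 10 µM; beta-galactosidase reporter signal reflecting CREB driven transcription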
- REPORTED CONDITIONS: luminescence, 4.5 h, higher = more signal, called active from +8 up or from −8 down
Tick class 1 if z-score is -0.05 or greater. Tick class 0 if z-score is less than -0.05.

COMPOUND	ASSIGNED LABEL
C#CCCCON=C1C[C@@H](O)[C@@H](O)[C@@H]2[C@@H]3C(=O)N(CC)C(=O)[C@@H]3CC[C@H]12	class 1
CON=C(C)CCN1CCc2nc(-c3ccccc3)c(-c3ccccc3)cc2C1	class 0
CC(C)[C@@H](OCc1ccccc1)[C@H](C)C=NOC[C@@H](O)[C@H]1O[C@@H]2OC(C)(C)O[C@@H]2[C@H]1O	class 1
CCN1C(=O)[C@H]2[C@H]3[C@H](O)[C@H](O)CC(=NOCC[C@@H]4C=C[C@H](OC(C)=O)[C@@H](COC(C)=O)O4)[C@@H]3CC[C@H]2C1=O	class 1
CCOC(=O)CCN1C(=O)[C@H]2[C@H]3[C@H](O)[C@H](O)CC(=NNC(=O)OCC)[C@H]3CC[C@H]2C1=O	class 1
CCOC(=O)CCN1C(=O)[C@H]2[C@H]3[C@H](O)[C@H](O)CC(=NOCC=C(C)CCC=C(C)C)[C@H]3CC[C@H]2C1=O	class 1
CCN1C(=O)[C@H]2[C@H]3[C@H](O)[C@H](O)CC(=NOCC(C)C)[C@H]3CC[C@H]2C1=O	class 1
CC(CCN1CCCCc2nc(C)c(C)cc21)=NO[C@H](C)c1cn([C@@H]2COC[C@H]2O)nn1	class 0
CO[C@@H]1COC(=O)CC=C[C@H](C)[C@H](OC)COC(=O)[C@@H]2CCCN2C(=O)CC=C[C@H]1C	class 0
COC(=O)[C@H](C)NC(=O)CCC1CC(OC(=O)NCCc2ccc(F)cc2)CC2(CCCC(COC(=O)NCC3CCCCC3)O2)O1 (some centres undefined)	class 1

Reported z-score reaches at least -0.05 for `C[C@H]1CC[C@H]2C(=O)N[C@H](Cc3ccccc3)C(=O)N2[C@@H]1c1ccccc1` ?
class 1

Form field: z-score at least -0.05? Entry: CCOC(=O)[C@H](Cc1ccccc1)NC(=O)CCC1CC(OC(=O)NCCc2ccc(F)cc2)CC2(CCCC(COC(=O)NCCC(C)C)O2)O1 (some centres undefined)
class 1

Hello, I need to know if `O=C1[C@H]2[C@H]3[C@H](O)[C@H](O)CC(=NOCc4ccccc4)[C@H]3CC[C@H]2C(=O)N1C1CCCCC1` has measured z-score not below -0.05. Thanks!
class 0

Each recorded value in this set is attributed to PubChem BioAssay.
